# Experiment description: Pharmacokinetics in CD-1 mice
# Format: in vivo
# Experimental setup: mouse, plasma, 30 mg/kg, single intravenous administration
Kindly supply the reported Cmax values for the records listed here.
One number for each entry, in µM.

[
  {
    "Compound": "C[C@@H]1CC[C@H]2[C@@H](C)C(OCc3cn(CCN4C(=O)C(=O)c5cc(F)ccc54)nn3)O[C@@H]3O[C@@]4(C)CC[C@@H]1[C@]32OO4 (some centres unmarked)",
    "Output unit": "µM",
    "Cmax": 12.5
  }
]

// query Quick one: Cmax of C[C@@H]1CC[C@H]2[C@@H](C)C(OCc3cn(CCN4C(=O)C(=O)c5ccccc54)nn3)O[C@@H]3O[C@@]4(C)CC[C@@H]1[C@]32OO4 (some centres unmarked) ?
// result 6.4

----------
I'd be grateful if you could share measured AUC for these entries.
# Experiment description: Pharmacokinetics in CD-1 mice
# Type: in vivo
# Experimental setup: mouse, plasma, 30 mg/kg, single intravenous administration
One number for each entry, in ng·h/mL.

[
  {
    "Molecule": "C[C@@H]1CC[C@H]2[C@@H](C)C(OCc3cn(CCN4C(=O)C(=O)c5cc(F)ccc54)nn3)O[C@@H]3O[C@@]4(C)CC[C@@H]1[C@]32OO4 (some centres unmarked) [8c]",
    "Output unit": "ng·h/mL",
    "AUC": 654
  }
]

// query Quick one: AUC for C[C@@H]1CC[C@H]2[C@@H](C)C(OCc3cn(CCN4C(=O)C(=O)c5ccccc54)nn3)O[C@@H]3O[C@@]4(C)CC[C@@H]1[C@]32OO4 (some centres unmarked) [8a] ?
// result 883

----------
# Experiment description: Pharmacokinetics in CD-1 mice
# Assay type: in vivo
# Experimental setup: mouse, plasma, 30 mg/kg, single intravenous administration
Answer each item with its documented half-life.
Answers are plain numbers, in min.

[
  {
    "Molecule": "C[C@@H]1CC[C@H]2[C@@H](C)C(OCc3cn(CCN4C(=O)C(=O)c5ccccc54)nn3)O[C@@H]3O[C@@]4(C)CC[C@@H]1[C@]32OO4 (some centres unmarked) [8a]",
    "half-life, min": 222
  }
]

Here's the next entry for you.
// query I'd like to know its half-life. The molecule in question is C[C@@H]1CC[C@H]2[C@@H](C)C(OCc3cn(CCN4C(=O)C(=O)c5cc(F)ccc54)nn3)O[C@@H]3O[C@@]4(C)CC[C@@H]1[C@]32OO4 (some centres unmarked) [8c]
// result 252

----------
# Test system: A549 lung cancer cells
# Experiment description: MTT antiproliferative assay, A549
# Type: cell-based
# Experimental: The antiproliferative activity of 1,2,3-triazole tethered dihydroartemisinin-isatin hybrids 8a-c and 9a-k against A549, multidrug-resistant A549/DOX and A549/DDP lung cancer cell lines as well as cytotoxicity towards mouse embryonic fibroblast cells NIH/3T3 were assessed by 3-(4,5-dimethylthiazol-2-yl)-2,5-diphenyltetrazolium bromide (MTT) assay, and half maximal inhibitory concentration (IC50) values were listed in Table 2. […]
Metric name: pIC50
Give bare numbers, as −log10 of the molar value.

// query Please look up its pIC50: N.N.[Cl][Pt][Cl] [cisplatin, reference compound]
// result 5.03

----------
# Tested on: A549, A549/DOX and A549/DDP lung cancer cell lines
# Experiment description: MTT antiproliferative assay, ranges pooled over lung cancer cell lines
# Type: cell-based
# Experimental setup: range over A549 and A549/DOX, read-out: IC50, range over A549 and A549/DOX
pIC50: −log10 of the molar value.
Metric name: pIC50

// query Lab note: need pIC50 for N.N.[Cl][Pt][Cl] [cisplatin, reference compound] on A549, A549/DOX and A549/DDP lung cancer cell lines, anyone have it?
// result 4.71 to 5.03
